Here the recorded Ki is given for each entry.
target.under.test: Adenosine receptor A2a (Homo sapiens)
Sequence (P29274 whole entry): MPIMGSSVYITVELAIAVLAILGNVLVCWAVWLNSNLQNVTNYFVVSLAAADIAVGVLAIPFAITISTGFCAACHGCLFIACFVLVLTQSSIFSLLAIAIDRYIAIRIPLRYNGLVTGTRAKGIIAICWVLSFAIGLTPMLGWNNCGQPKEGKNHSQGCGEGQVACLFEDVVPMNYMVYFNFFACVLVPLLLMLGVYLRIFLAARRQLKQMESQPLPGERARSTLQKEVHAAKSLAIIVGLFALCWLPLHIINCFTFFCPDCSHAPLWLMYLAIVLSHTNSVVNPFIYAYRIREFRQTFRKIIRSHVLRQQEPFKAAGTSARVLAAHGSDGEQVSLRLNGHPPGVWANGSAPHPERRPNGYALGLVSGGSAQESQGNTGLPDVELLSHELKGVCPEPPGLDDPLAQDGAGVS
assay.text: Displacement of [3H]ZM241385 from human adenosine A2A receptor expressed in HEK293 cells after 1 hr by liquid scintillation counting
Type: cell-based
condition.description: read-out: pKi (converted)

Some solved entries appear below for comparison.
- structure.notation: "Cc1csc(-c2coc3cc(OCCN(C)C)cc(C)c3c2=O)n1"
  Ki: "1580 nM"
- structure.notation: "CCOC(=O)COc1cc(C)c2c(=O)c(-c3nc(C)cs3)coc2c1"
  Ki: "100 nM"
- structure.notation: "CCCc1cc2c(=O)c(-c3csc(C)n3)coc2cc1O"
  Ki: "31.6 nM"
- structure.notation: "Cc1csc(-c2c(C)oc3cc(O)ccc3c2=O)n1"
  Ki: "7940 nM"

## Task // lookup Ki for Cc1csc(-c2coc3cc(O)ccc3c2=O)n1
## Result 2000 nM
